target: F protein of RSV strain A2 (infectious virus) (human respiratory syncytial virus …, UniProt P03420 26-574); experiment: cell-based or functional assay
Sequence (P03420 26-574): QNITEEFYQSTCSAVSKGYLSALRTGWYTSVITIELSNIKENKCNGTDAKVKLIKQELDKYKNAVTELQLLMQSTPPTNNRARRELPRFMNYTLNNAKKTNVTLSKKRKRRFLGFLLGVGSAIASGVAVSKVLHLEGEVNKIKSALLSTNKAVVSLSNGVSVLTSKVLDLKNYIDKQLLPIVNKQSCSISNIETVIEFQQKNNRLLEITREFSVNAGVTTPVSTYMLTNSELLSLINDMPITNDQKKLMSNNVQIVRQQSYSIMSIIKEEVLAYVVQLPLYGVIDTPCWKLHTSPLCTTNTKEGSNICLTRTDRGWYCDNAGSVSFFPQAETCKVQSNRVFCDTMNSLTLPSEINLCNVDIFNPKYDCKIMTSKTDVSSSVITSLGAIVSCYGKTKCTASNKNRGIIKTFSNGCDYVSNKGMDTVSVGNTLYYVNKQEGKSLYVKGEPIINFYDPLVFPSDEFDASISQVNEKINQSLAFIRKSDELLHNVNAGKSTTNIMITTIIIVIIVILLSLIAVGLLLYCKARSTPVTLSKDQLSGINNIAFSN
endpoint: Neutralization IC50, plaque-reduction assay (µg/mL)
Output spec: scalar in µg/mL, unitless text.

Answered cases to consult:
hRSV7 (antibody, V domains shown) VH: EVQLVESGGGLVQPGGSLRLSCAASGFTFRNYAMSWVRQAPGKGLEWVSDISSGGDTTYYAESLKGRITISRDNSKNTLYLQMNSLRAEDAAIYFCAKHLLSPMYVNTDVFPDWYFEIWGRGTLVTVSS VL: SYELTQPPSVSVSPGQTARITCSGDGLPKKYAYWYQQKSGQAPVLVIYDDSKRPSGIPERFSGTSSGTMATLIISGAQVEDEADYYCYSRHNSAYQRVFGAGTQLTVL	1.33
hRSV106 (antibody, V domains shown) VH: QITLKESGPTLVKPTQTLTLTCTFSGFSLTTRGVGVAWIRQPPGKALEWLALIYWDDDKRYRSSPKGRLTITKDNSKNQVVLIMTNMDPVDTATYYCAHAMDDSGSYYVGLSKDPHFDSWGHGTLVTVSS VL: SYELTQPPSVSVSPGQTASITCSGDVLFNKFASWYQQKPGQSPVLVIYQDSKRPSGIPERFSGSNSGNTATLTIRGTQAMDEADYYCQARGSTAAHVIFGGGTKVTVL	0.451
hRSV141 (antibody, V domains shown) VH: QVQLVQSGAEVKKPGASVKVSCKASGYTFTNYYMHWVRQAPGQGLEWMGWINPNRGGTNYAQKFQGRVTMTLDTSISTAYIELSRLRSDDTAVYYCARDLTLGTDYWGQGTLVTVSS VL: QAVVTQPASVFGFPGQSITISCTGTSSDVGGYNYVSWYQQRPGKAPKLMIYEVSNRPSGVSNRFSGSKSGNTASLTISGLQAEDEADYYCNSYTSSNSYVFGTGTKVTVL	0.626
hRSV139 (antibody, V domains shown) VH: QVQLVQSGAEVKKPGASVKVSCKASGYVFSNYGISWVRQAPGQGLEWMGWISAYNGNTEFAQKFQGRITMTTDTSTNTAYLEVRGLRSDDTAVYYCSRQSGVSGVPEFQDWGQGTLVTVSS VL: QAVVTQSPLSLPVTLGQPASISCRSSQSLVYSNGDTYLSWFQQRPGQSPRRLIYKVSNRDSGVPDRFSASGSGTDFTLKISRVEAEDVGVYYCMQGTHWPPPTFGQGTRLEIK	0.621

Data request: For the binder hRSV61 (antibody, V domains shown) VH: QVQLVQSGAELKKPGASVKVSCKASGYTFTNHGITWVRQAPGQGLEWMSWISGYNGNTQYAQKFQGRVTMTTDTSTRTAYMELRSLTSDDTAVYYCARDNGVVVGPPDYWGQGTLVTVSS VL: DIQMTQSPSTLSASVGDRVTISCRASQSISSWLAWYQQKPGKPPKLLIYKASGLQTGVPSRFSGSGSGTEFTLTISSLQPDDFATYYCQYYHSLSAFGQGTKVEIK , give its reported Neutralization IC50, plaque-reduction assay.
Data returned: 0.276

Data request: For the binder hRSV20 (antibody, V domains shown) VH: QVQLVESGGGLVQPGRSLRLSCAASGFTFDDYAMHWVRQAPGRGLEWVSGISWNSGIAVYADSVKGRFTISRDNAKKSLYLQINSLRAEDTALYYCVKDNYASGSYSSYYYYYGLDLWGQGTLVTVSS VL: EIVMTQSPATLSVSPGERATLSCRASQSIISNLAWYQQKPGQAPRLLIYGVSTRATGIPARFSGSGSDTEFTLSISSLQSEDFAVYYCQQYNNWPITFGQGTRLEIK , give its reported Neutralization IC50, plaque-reduction assay.
Data returned: 0.034
